target: Fuc(a1-2)[Gal(a1-3)]Gal(b1-4)[Fuc(a1-3)]Glc; test: glycan array binding signal (z-score within array); higher = stronger binding; conditions: glycan notation: IUPAC condensed, linker removed
The sample as a whole holds a higher share of the strongest signals than the screen did.
Known glycan array binding signal (z-score) of a selection of binders
Write the number on its own, no unit after it.

// known answers, use as guide
Inquiry: Reported glycan array binding signal (z-score) for HML-Native (Hypnea musciformis), P84871 (protein) QKFCTLDIAPVCCQIVIGGGMYTAGNACMCEGFVSGVGRCENPKECPCTREAQIPSCCSSRWGLVSVTGKCACDCLGGTVAFPEPCPSPY : what is it?
Reply text: -0.283

Inquiry: Queued: PNA (Arachis hypogaea), P02872 (protein) MKPFCVFLTFFLLLAASSKKVDSAETVSFNFNSFSEGNPAINFQGDVTVLSNGNIQLTNLNKVNSVGRVLYAMPVRIWSSATGNVASFLTSFSFEMKDIKDYDPADGIIFFIAPEDTQIPAGSIGGGTLGVSDTKGAGHFVGVEFDTYSNSEYNDPPTDHVGIDVNSVDSVKTVPWNSVSGAVVKVTVIYDSSTKTLSVAVTNDNGDITTIAQVVDLKAKLPERVKFGFSASGSLGGRQIHLIRSWSFTSTLITTTRRSIDNNEKKIMNMASA
Reply text: -0.09

---
Inquiry: Reported glycan array binding signal (z-score) for Gal 1 (Mus musculus), P16045 (protein) MACGLVASNLNLKPGECLKVRGEVASDAKSFVLNLGKDSNNLCLHFNPRFNAHGDANTIVCNTKEDGTWGTEHREPAFPFQPGSITEVCITFDQADLTIKLPDGHEFKFPNRLNMEAINYMAADGDFKIKCVAFE : what is it?
Reply text: -0.455
